Listed below: 3' UTR reporter interaction score values for each entry.
# Test system: HRAS
# assay-remarks: 3' UTR reporter interaction score (median-centred robust z-score of log2 firefly/Renilla activity); higher = less repression of the 3' UTR reporter
# condition-description: HEK293T; 48 h
Lab note: jot down the number only; don't add units.

UUCACAGUGGCUAAGUUCUGC -1.25

Consider the sequence UCUACAGUGCACGUGUCU . State its measured 3' UTR reporter interaction score. -0.193

Consider the sequence UGUGCAAAUCUAUGCAAAACUGA . State its measured 3' UTR reporter interaction score. -1.18

Consider the sequence UGAGACCUCUGGGUUCUGAGCU . State its measured 3' UTR reporter interaction score. -0.0086

Consider the sequence UAGUGCAAUAUUGCUUAUAGGGUUU . State its measured 3' UTR reporter interaction score. 0.0165

Consider the sequence UUGUGUCAAUAUGCGAUGAUGU . State its measured 3' UTR reporter interaction score. 1.07

Consider the sequence UACCCAUUGCAUAUCGGAGUUG . State its measured 3' UTR reporter interaction score. 0.189

###

Listed below: 3' UTR reporter interaction score values for each entry.
# Tested on: TP53
# assay-remarks: 3' UTR reporter interaction score (median-centred robust z-score of log2 firefly/Renilla activity); higher = less repression of the 3' UTR reporter
# condition-description: HEK293T; 48 h
Lab note: jot down the number only; don't add units.

GCGAGGACCCCUCGGGGUCUGAC 0.0903

Report value: 3' UTR reporter interaction score, system: TP53, sequence: ACUCAAAAUGGGGGCGCUUUCC -0.765

Report value: 3' UTR reporter interaction score, system: TP53, sequence: GGAGAAAUUAUCCUUGGUGUGU 0.00656

Report value: 3' UTR reporter interaction score, system: TP53, sequence: UCUUGGAGUAGGUCAUUGGGUGG 0.12

Report value: 3' UTR reporter interaction score, system: TP53, sequence: UACCCUGUAGAUCCGAAUUUGUG -0.88

Report value: 3' UTR reporter interaction score, system: TP53, sequence: UGAGGUAGUAGUUUGUACAGU 0.627

Report value: 3' UTR reporter interaction score, system: TP53, sequence: ACAAAGUGCUUCCCUUUAGAGU -0.415

Report value: 3' UTR reporter interaction score, system: TP53, sequence: AGACCAUGGGUUCUCAUUGU -0.82

Report value: 3' UTR reporter interaction score, system: TP53, sequence: CAUUGCACUUGUCUCGGUCUGA -0.48

Report value: 3' UTR reporter interaction score, system: TP53, sequence: UAUUGCACAUUACUAAGUUGC -0.165

###

Listed below: 3' UTR reporter interaction score values for each entry.
# Test system: HRAS
# assay-remarks: 3' UTR reporter interaction score (median-centred robust z-score of log2 firefly/Renilla activity); higher = less repression of the 3' UTR reporter
# condition-description: HEK293T; 48 h
Lab note: jot down the number only; don't add units.

Consider the sequence UCCGAGCCUGGGUCUCCCUCU . State its measured 3' UTR reporter interaction score. -0.0807

###

# System: PHF6
# assay-remarks: 3' UTR reporter interaction score (median-centred robust z-score of log2 firefly/Renilla activity); higher = less repression of the 3' UTR reporter
# condition-description: HEK293T; 48 h
Listed below: 3' UTR reporter interaction score values for each entry.
Lab note: jot down the number only; don't add units.

AUCAUAGAGGAAAAUCCAUGUU -0.0407

Consider the sequence UACAGUAUAGAUGAUGUACUAG . State its measured 3' UTR reporter interaction score. 0.845

Consider the sequence UAUUGCUUAAGAAUACGCGUAG . State its measured 3' UTR reporter interaction score. -1.32
